# assay_target: DRB1*1101 (Homo sapiens, UniProt P01903+P01911, A100R/A169T/A87E/I96F/K41T/L162R/M171V/P40S/Q125H/Q178H/Q39Y/Q99D/R42S/S66Y/T262R/V115G/W38E)
# Sequence (P01903 26-254 limits assumed, other chains not shown): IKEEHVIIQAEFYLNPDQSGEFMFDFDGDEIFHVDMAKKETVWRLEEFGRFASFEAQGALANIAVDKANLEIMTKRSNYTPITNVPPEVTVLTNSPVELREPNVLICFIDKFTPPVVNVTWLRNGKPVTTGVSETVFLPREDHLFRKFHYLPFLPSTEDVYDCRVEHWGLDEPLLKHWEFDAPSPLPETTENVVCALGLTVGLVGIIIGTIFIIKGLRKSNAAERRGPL
# assay_remarks: biochemical
# condition_label: Binding affinity DRB1 *1101
No end group written: not given here.

{"columns": ["monomer_sequence", "value_modifier", "IC50 (µM)"],
 "data": [
  ["SDEISFAGIVTKLPT [Peptide 1601.45]", "=", 12.2],
  ["KVAMLDDATHTCWTY [Peptide 90.0105]", "=", 2.26],
  ["DSDIAYYYAQLADSN [Peptide 89.0071]", "=", 9.14],
  ["TPEWIEQQTVLQHSF [Peptide 89.0104]", ">", 20],
  ["AFQVIELQMALETLS [Peptide 89.0181]", "=", 2.14],
  ["DICNTMHYTNWTHIY [Peptide 1601.04]", ">", 20],
  ["IIHLKGDPNSLKCLR [Peptide 90.0228]", ">", 20]
]}

* * *

List of IC50 values.
# assay_target: A31 (A*3101) (Homo sapiens, UniProt P04439, A270S/D185E/E176V/E277Q/F33T/G231S/G80R/H175R/I121M/I218V/I322F/K168Q/L300P/L318F/M331R/P217A/Q94H/R138Q/T323A/T345S/T97I/V358M)
# assay_remarks: biochemical
# Format: binding
No end group written: not given here.

{"columns": ["monomer_sequence", "IC50"],
 "data": [
  ["KLNWASQIY [Peptide 1595.09]", "> 20 µM"],
  ["LVYRDDFPY [Peptide 1581.04]", "> 20 µM"],
  ["IMCLRFLSK [Peptide 1571.12]", "2.3 µM"],
  ["YLALTALIK [Peptide 9017.0097]", "> 20 µM"],
  ["KQLQHTPSPY [Peptide 88.0204]", "> 20 µM"],
  ["TQQLQDLFK [Peptide 88.0374]", "> 20 µM"],
  ["FTDLRIVYR [Peptide 1550.08]", "0.065 µM"],
  ["RVHSSHLK [Peptide 1556.72]", "0.483 µM"],
  ["GLYYWCDGEK [Peptide 88.0229]", "5.1 µM"],
  ["KIDWLIKRIR [Peptide 9017.0248]", "0.019 µM"],
  ["AFKDLFVVYK [Peptide 88.0024]", "0.032 µM"],
  ["EQMLIQPPK [Peptide 88.0378]", "> 20 µM"],
  ["LVYQDTILWK [Peptide 9012.0221]", "> 20 µM"],
  ["ATMCRHYKR [Peptide 1587.08]", "0.01 µM"]
]}

* * *

List of pIC50 values.
# assay_target: A*6801 (Homo sapiens, UniProt P04439, A269V/D185E/E176V/E277Q/E87N/F33Y/G231S/I121M/I166T/I218V/L180W/L300P/L318F/N151K/P208A/P217A/Q86R/R169H/T345S)
# assay_remarks: biochemical
# Format: binding
pIC50: −log10 of the molar value. No end group written: not given here.

{"columns": ["monomer_sequence", "value_modifier", "pIC50"],
 "data": [
  ["TQQLQDLFK [Peptide 88.0374]", "=", 5.18],
  ["STWHWTGCNK [Peptide 1589.28]", "=", 7.49],
  ["ISYGRKKRRQK [Peptide 73.0314]", "=", 5.35],
  ["VTVKVGGQLR [Peptide 1516.06]", "=", 7.02],
  ["ITVSAELPR [Peptide 1556.18]", "=", 7.60],
  ["KQIVMFLRY [Peptide 88.0330]", "=", 5.65],
  ["ALQGLAQSR [Peptide 88.0398]", "=", 4.95],
  ["VLMWKFDSR [Peptide 9017.0066]", "=", 6.29],
  ["HLYGYSWYK [Peptide 76.0153]", "=", 7.80],
  ["ISYGRKKRR [Peptide 9017.0079]", "=", 5.87],
  ["NSNASAFLK [Peptide 1587.07]", "=", 7.57],
  ["SFFSRTWSR [Peptide 1587.16]", "=", 8.44],
  ["AVMCRHYKR [Peptide 1587.53]", "=", 7.60],
  ["KLCLRFLSK [Peptide 1571.20]", "<", 4.70],
  ["AILGHIVSPR [Peptide 9017.0225]", "=", 7.04],
  ["MTLESILRR [Peptide 9012.0215]", "=", 7.82],
  ["EQMLIQPPK [Peptide 88.0378]", "=", 6.14],
  ["SFMELVRPFK [Peptide 88.0163]", "=", 5.86],
  ["SQIEHWKLIR [Peptide 88.0213]", "=", 5.88],
  ["SQACALYWFR [Peptide 88.0192]", "=", 7.07],
  ["IVKETELRK [Peptide 9012.0209]", "=", 5.76],
  ["HSRIGILRQR [Peptide 9017.0242]", "=", 6.60],
  ["MSFLTALKR [Peptide 1587.11]", "=", 8.62],
  ["GQVDYYGLYY [Peptide 1589.02]", "<", 4.70],
  ["LVYRDDFPY [Peptide 1581.04]", "=", 4.95],
  ["IMCLRFLSK [Peptide 1571.12]", "=", 4.89],
  ["VLCTYSPALNK [Peptide 1556.36]", "=", 4.83],
  ["VQLDIQSTK [Peptide 78.0301]", "<", 4.70],
  ["SFSELVRPFK [Peptide 1587.03]", "=", 5.27],
  ["STTETADPK [Peptide 88.0441]", "=", 7.13],
  ["TALIKPKKR [Peptide 9017.0102]", "=", 6.53],
  ["LVKHHMYVSK [Peptide 9017.0216]", "=", 7.77],
  ["TLSAELPK [Peptide 1556.24]", "<", 4.70],
  ["LLQAVRIIK [Peptide 9017.0068]", "=", 4.80],
  ["QQLLFIHFR [Peptide 9017.0111]", "=", 7.77],
  ["AILGHIVIPR [Peptide 9017.0224]", "=", 7.38],
  ["GVVFGILIKK [Peptide 9012.0242]", "=", 6.84],
  ["YLTAPTGCLK [Peptide 1589.15]", "=", 5.59],
  ["ILWKDIFHR [Peptide 9012.0201]", "=", 6.63],
  ["QVVPALSVSK [Peptide 1589.13]", "=", 7.92],
  ["KTASVGTPK [Peptide 1589.27]", "=", 8.07],
  ["ATMCRHYKR [Peptide 1587.08]", "=", 7.22],
  ["EQNEALELK [Peptide 1556.69]", "=", 4.93],
  ["TFPHAFPFDK [Peptide 88.0176]", "=", 6.70],
  ["ETLNASPYK [Peptide 1589.39]", "=", 7.55],
  ["VSYWGVYYIK [Peptide 1589.25]", "=", 7.62],
  ["RLIERIRER [Peptide 9017.0124]", "=", 6.01],
  ["VTYNSEVQR [Peptide 1589.29]", "=", 7.64],
  ["FADLTVVYR [Peptide 78.0318]", "=", 7.41],
  ["FTDLRIVYR [Peptide 1550.08]", "=", 6.80],
  ["SFFQNLQVIR [Peptide 9012.0232]", "=", 5.85],
  ["LQLALEALNK [Peptide 88.0227]", "<", 4.70],
  ["YQNFQNADK [Peptide 99.0371]", "=", 4.70],
  ["GTFKCSAGK [Peptide 88.0373]", "=", 7.09],
  ["GSLQYLALK [Peptide 9017.0096]", "=", 5.00],
  ["TVSATQIVR [Peptide 1589.26]", "=", 7.85],
  ["TTTYSPALNK [Peptide 1556.41]", "=", 7.74]
]}

* * *

# assay_target: DRB1*1501 (Homo sapiens, UniProt P01903+P01911)
# assay_remarks: biochemical
# Type: binding
No end group written: not given here.
List of log10 of IC50 values.
property_name: log10 of IC50 (log10 of the value in µM)

{"columns": ["monomer_sequence", "log10 of IC50"],
 "data": [
  ["PMAVSKAKACQAIEL [Peptide 90.0013]", 1.22],
  ["VTVFTFPHAFPFDKN [Peptide 89.0092]", -1.20],
  ["TPEWIEQQTVLQHSF [Peptide 89.0104]", 1.11],
  ["GQVIVCPTSISSNQI [Peptide 89.0185]", 0.58],
  ["DWCVAAFGVTGTVAE [Peptide 89.0042]", -1.19],
  ["DDRWPYLHSRLVVFT [Peptide 89.0058]", -0.55],
  ["DNDVMDDSEIAYKYA [Peptide 90.0069]", 0.91],
  ["CIHSTATDLRTLQQM [Peptide 1543.45]", 1.18],
  ["KVAMLDDATHTCWTY [Peptide 90.0105]", 0.35],
  ["CQAIELQLALEALNK [Peptide 90.0014]", -0.70],
  ["DSEIAYKYAQLADSD [Peptide 89.0051]", 0.04],
  ["LKAICIENNSKTAKR [Peptide 90.0064]", -0.44],
  ["KSLFGMSLMKFLQGS [Peptide 89.0020]", 0.32],
  ["LNTVKIPNTVSVSTG [Peptide 89.0178]", 1.10],
  ["ITFLGALKSFLKGTP [Peptide 89.0034]", -0.89],
  ["LIRLENAILFTAREH [Peptide 90.0002]", 0.32]
]}
